Tested on: Saccharomyces cerevisiae
EXPERIMENTAL_DETAILS: transcriptional activation domain activity (GFP:mCherry ratio, weighted mean of sorted bins, harmonized to initial dataset scale) (arbitrary fluorescence ratio units); higher = stronger transcriptional activation
MEASUREMENT_PARAMETERS: beta-estradiol 1 µM; induction time 4 h
MEASURED_ENDPOINT: transcriptional activation domain activity
Please give only the number in your answer, with no unit.

IN: Observed transcriptional activation domain activity on Saccharomyces cerevisiae for TIVLSAMQVGLATQFLVDDYAFSMASYVFSVFAILAPLSAIAAILFVLVLLFA , please.
OUT: 49900

* * *

Tested on: Saccharomyces cerevisiae
EXPERIMENTAL_DETAILS: transcriptional activation domain activity (GFP:mCherry ratio, weighted mean of sorted bins, harmonized to initial dataset scale) (arbitrary fluorescence ratio units); higher = stronger transcriptional activation
MEASUREMENT_PARAMETERS: beta-estradiol 1 µM; induction time 4 h
Catalogue of transcriptional activation domain activity values
Response field accepts a number only; no unit should be typed.

# annotated cases, reported transcriptional activation domain activity shown
KATEYCLYFFGLGPALFKSLLPDKYWQHYCMLVHAVRILVQRRITQTQMLEAY; 49300
ADEEDADEEDADEEDAGEKDAGEKDAGEEGAGEEDAGEEDASAIDAAACRMVQ; 29800
WLRPPRWACGRRALLLLSMGLGTVMLLILTGLLTMNQSNGAKLPVVMVFVILF; 32600
RQLAWECLHHCSVQLRPSGATIRDSLRAAAHYVKHLAIQHKLVLVALQPFFAY; 43100

IN: Given LLVLLLVLLLVLLLILLLILLILLVYLLLLLLLVLLFFLLLLLLLFTFILHFL , state its recorded transcriptional activation domain activity.
OUT: 46200

* * *

Test system: Saccharomyces cerevisiae
EXPERIMENTAL_DETAILS: transcriptional activation domain activity (GFP:mCherry ratio, weighted mean of sorted bins, harmonized to initial dataset scale) (arbitrary fluorescence ratio units); higher = stronger transcriptional activation
MEASUREMENT_PARAMETERS: beta-estradiol 1 µM; induction time 4 h
# transcriptional activation domain activity annotations
Answer as a number with no unit attached.

PSNQAFWIACLFSSVMYHLLFHLLLLFFSLLFLFFLFFLPSYHVLFHFHHMTG; 47700
MDAYFFFVFLSFLFFYIFFLLFSILLLFSFYFLCSGVHNMCFLVGVWLWSRGG; 35800
ASDYAIGQFRYLKRLILVHGEWSYARNANMIVNFFYKNILGIGVLWWFQIYCG; 39100
GASAFGSAAQLGQKSSPWGSATSAVPSTGGAVFGSSGFGNAAPSAAPAFGKPS; 33200
FILYSLLLIPFPLNYILSYIFFFFFLILWGIYLAMRGFFKSWFSLWAWAGNGI; 64600

IN: API: value(readout=transcriptional activation domain activity, system=Saccharomyces cerevisiae) for record MAQTTPESASSSQSTLARGKACLRCRKRKMRCDGAKPACGQCVKAHKPDACQY
OUT: 24400

IN: For MKFLFILCCHILPYVPIFYLMSLSSIFLHFTLLFIYLITLFYTFAYIFIFSFY then?
OUT: 50400

IN: Ok, now FLHLLKIIRPSFAFYFTILFWWCIQVQLLLQIIINRIRVIVPNRKLSRHIMWG
OUT: 66300

IN: Similarly, DRMRENGLLSLSDLREYFVCWWRFEKMYRTLIIAETWMDLQAYKVKTLAWLHG ?
OUT: 63200
